- ASSAY_REMARKS: protein stability index of a GFP-peptide fusion (GPS, HEK-293T) (PSI 1-6); higher = more stable;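 also: 24-mer peptide tiles fused after GFP, lentivirally expressed, FACS-sorted into six equal bins by GFP/DsRed ratio, decoded by Illumina sequencing, PSI is the read-weighted mean bin number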
- CONDITIONS: treatment: DMSO; c terminus: a fixed tail appended
VALUE_KIND: protein stability index
Provide a numeric answer; units are not to be included.

Task: Value lookup for protein stability index; key = CENFPEMATYLRYVRRLDFFEKPD [CSNK1G3]
Result: 2.21

Task: Value lookup for protein stability index; key = NQPSGLIRTYLGRSPLVSGDESSL [RHOBTB3]
Result: 3.85

Task: Value lookup for protein stability index; key = RFVPSNPIGILTTSYCELLQNKVP [PPTC7]
Result: 2.57

Task: Value lookup for protein stability index; key = ERHLVEIKQKLGMNLMNELKQNFS [TPD52L1]
Result: 3.04

Task: Value lookup for protein stability index; key = VAGEGVRRKGEMGLSAEDGVWAVI [TRIM15]
Result: 2.51

Task: Value lookup for protein stability index; key = LSSAEENEPSQAETAVEGDPSGVS [C18orf25]
Result: 5.47

Task: Value lookup for protein stability index; key = KSNGRGGSQAGGSGSAGQYGSDQQ [MYOZ1]
Result: 5.49

Task: Value lookup for protein stability index; key = TEQLIEAVNNGDFEAYAKICDPGL [CAMK2B]
Result: 4.19

Task: Value lookup for protein stability index; key = VLKLLLLLLLFGVAGGLVACRVTE [LRRC59]
Result: 2.77

Task: Value lookup for protein stability index; key = LLRHRMNWLGRPSKVLSLQDLCCR [RAB40A]
Result: 2.62

Task: Value lookup for protein stability index; key = GVPNASVIMQVPERIVVAGNNEDV [MFF]
Result: 4.68

Task: Value lookup for protein stability index; key = MCQTKHSPWADGTPCGPAQACMGG [ADAMTS4]
Result: 3.26

Task: Value lookup for protein stability index; key = IGKLLYLEDFFVMSDYRGFGIGSE [SAT1]
Result: 2.85

---

- ASSAY_REMARKS: protein stability index of a GFP-peptide fusion (GPS, HEK-293T) (PSI 1-6); higher = more stable
- CONDITIONS: treatment: MLN4924 1 uM, 8 h; c terminus: a fixed tail appended
VALUE_KIND: protein stability index
Provide a numeric answer; units are not to be included.

Task: Value lookup for protein stability index; key = QQIEEQRVQVQVVERAQQVAVQEQ [FLOT1]
Result: 5.03

Task: Value lookup for protein stability index; key = DALEDSLEEVAVQQTGDDDEVDDF [PBXIP1]
Result: 5.67

Task: Value lookup for protein stability index; key = KRSVYIDARDEELEKDTMDNWDEK [ZC3H15]
Result: 4.88

Task: Value lookup for protein stability index; key = HSDHSSEMSLPEVQKDKYPEEFSL [SPATS1]
Result: 5.26

Task: Value lookup for protein stability index; key = LTIEERYLPQCSYFKCVQKDIQPY [CCND2]
Result: 2.49

Task: Value lookup for protein stability index; key = KDLNENLAATQGLAHMIAECKKLF [DLC1]
Result: 2.3

Task: Value lookup for protein stability index; key = VQHQRVHTGEKPYKCLECGKAFSQ [ZNF24]
Result: 3.66

Task: Value lookup for protein stability index; key = GGYGFGRGRASGFAGSMFGSVALG [KRT71]
Result: 2.96

Task: Value lookup for protein stability index; key = TQHFVQENYLEYRQVPGSDPACYE [MAGEA3]
Result: 4.34

Task: Value lookup for protein stability index; key = RYHNSHPLRERARKLSQGILIIRF [YJU2B]
Result: 2.67

Task: Value lookup for protein stability index; key = KKIRQVIRKYNYVAMDTEFPGVVA [CNOT7]
Result: 2.24

Task: Value lookup for protein stability index; key = LRAFVNSQIQGHKEMSKVWNDLRP [SNX8]
Result: 2.62

Task: Value lookup for protein stability index; key = MAAKSQPNIPKAKSLDGVTNDRTA [DHCR7]
Result: 5.04

Task: Value lookup for protein stability index; key = QVMVSGPNLNETSIVSGGYGGSGD [ARFIP2]
Result: 4.41

Task: Value lookup for protein stability index; key = SLDTLLEAVESRGGVPGGCVLVPR [SMAD6]
Result: 3.23

Task: Value lookup for protein stability index; key = DRVILSSSTSCLMPSKLFAGLVHV [CRYL1]
Result: 2.58

Task: Value lookup for protein stability index; key = TTGIVETHFTFKDLHFKMFDVGGQ [GNAI1]
Result: 2.27

Task: Value lookup for protein stability index; key = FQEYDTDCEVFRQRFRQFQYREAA [ZNF449]
Result: 3.18

Task: Value lookup for protein stability index; key = AIQYALNIAFSEAEGARPLRENVP [MATN2]
Result: 2.08

Task: Value lookup for protein stability index; key = EPPPALPPAADAPVTQIGFEAPPL [TRIM55]
Result: 5.39

Task: Value lookup for protein stability index; key = MQPSKPQQPSLNTMIQQQNMQQPM [CLINT1]
Result: 4.34

Task: Value lookup for protein stability index; key = STAPGLFLVSTHTGEVRTARALLE [PCDHGC5]
Result: 2.54

Task: Value lookup for protein stability index; key = HCRENAHDKIRPISSIGQVQSYME [SPACA9]
Result: 3.29

Task: Value lookup for protein stability index; key = CGDGNTETHRAPDLVQWTRHMEAV [SOAT2]
Result: 3.48
